molecular target: PKR R532W (Homo sapiens, UniProt P30613, R532W); test: PKR Mutant Assay, AC50 (R532W); type: biochemical
Sequence (P30613 whole entry R532W): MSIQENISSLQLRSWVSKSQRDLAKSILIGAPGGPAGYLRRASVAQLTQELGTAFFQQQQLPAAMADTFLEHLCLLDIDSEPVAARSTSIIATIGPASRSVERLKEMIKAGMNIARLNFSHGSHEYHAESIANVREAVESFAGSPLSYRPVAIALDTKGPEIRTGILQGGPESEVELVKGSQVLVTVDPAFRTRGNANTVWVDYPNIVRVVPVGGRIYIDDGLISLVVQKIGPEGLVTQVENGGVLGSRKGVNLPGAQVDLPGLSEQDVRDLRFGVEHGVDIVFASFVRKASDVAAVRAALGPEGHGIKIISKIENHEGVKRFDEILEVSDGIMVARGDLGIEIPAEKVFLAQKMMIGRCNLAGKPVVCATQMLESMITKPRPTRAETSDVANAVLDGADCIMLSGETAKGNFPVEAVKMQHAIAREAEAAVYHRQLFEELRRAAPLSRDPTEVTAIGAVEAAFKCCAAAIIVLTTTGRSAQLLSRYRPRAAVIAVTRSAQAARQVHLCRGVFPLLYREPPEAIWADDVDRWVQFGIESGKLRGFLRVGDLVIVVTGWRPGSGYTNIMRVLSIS

{"columns": ["molecule", "target or system", "AC50"],
 "data": [
  ["O=C(c1ccc(NS(=O)(=O)c2cccc3cccnc23)cc1)N1CC(O)(Cc2ccccc2)C1 [drawing 71]", "PKR R532W (Homo sapiens, UniProt P30613, R532W)", "< 100 nM"],
  ["O=C(NC1CN(C(=O)c2ccc(NS(=O)(=O)c3cccc4cccnc34)cc2)C1)c1ccccn1 [drawing 81]", "PKR R532W (Homo sapiens, UniProt P30613, R532W)", "> 500 nM"],
  ["O=C(c1ccc(NS(=O)(=O)c2cccc3cccnc23)c(F)c1)N1CC(Nc2ccccc2)C1 [drawing 88]", "PKR R532W (Homo sapiens, UniProt P30613, R532W)", "> 500 nM"],
  ["O=C(c1ccc(NS(=O)(=O)c2cccc3cccnc23)cc1)N1CC(OCc2ccccc2)C1 [drawing 78]", "PKR R532W (Homo sapiens, UniProt P30613, R532W)", "101 to 500 nM"],
  ["Cc1cc(C(=O)N2CC(Oc3ccccc3)C2)ccc1NS(=O)(=O)c1cccc2cccnc12 [drawing 76]", "PKR R532W (Homo sapiens, UniProt P30613, R532W)", "< 100 nM"],
  ["O=C(c1ccc(NS(=O)(=O)c2cccc3cccnc23)cc1)N1CC(Oc2ccccc2)C1 [drawing 70]", "PKR R532W (Homo sapiens, UniProt P30613, R532W)", "< 100 nM"],
  ["COc1ccccc1OC1CN(C(=O)c2ccc(NS(=O)(=O)c3cccc4cccnc34)c(C)c2)C1 [drawing 129]", "PKR R532W (Homo sapiens, UniProt P30613, R532W)", "< 100 nM"],
  ["O=C(c1ccc(NS(=O)(=O)c2cccc3cccnc23)cc1)N1CC(O)(c2ccccc2)C1 [drawing 106]", "PKR R532W (Homo sapiens, UniProt P30613, R532W)", "101 to 500 nM"],
  ["Cc1cc(C(=O)N2CC(NC(=O)c3ccccn3)C2)ccc1NS(=O)(=O)c1cccc2cccnc12 [drawing 73]", "PKR R532W (Homo sapiens, UniProt P30613, R532W)", "101 to 500 nM"]
]}

Ref: patent US9388164B2
